experimental.system: NEU2 (Homo sapiens)
Sequence (Q9Y3R4 whole entry): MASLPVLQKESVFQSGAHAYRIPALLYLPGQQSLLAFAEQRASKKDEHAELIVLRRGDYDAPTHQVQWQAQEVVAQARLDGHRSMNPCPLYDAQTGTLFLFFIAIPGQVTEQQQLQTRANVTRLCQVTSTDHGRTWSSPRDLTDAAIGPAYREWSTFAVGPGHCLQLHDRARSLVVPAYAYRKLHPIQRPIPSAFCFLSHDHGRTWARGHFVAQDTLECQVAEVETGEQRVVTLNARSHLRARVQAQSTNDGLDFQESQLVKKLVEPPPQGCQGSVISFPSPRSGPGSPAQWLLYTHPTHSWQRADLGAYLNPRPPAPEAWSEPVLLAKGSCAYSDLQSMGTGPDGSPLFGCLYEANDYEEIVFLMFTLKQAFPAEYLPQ
pIC50: −log10 of the molar value.
property: pIC50

For CC(=O)N[C@H]1[C@H]([C@H](O)[C@H](O)Cn2cc(-c3ccc(C(=O)O)cc3)nn2)OC(C(=O)O)=C[C@@H]1N=[N+]=[N-] , what is its reported pIC50?
< 3.30

---

experimental.system: NEU3 (Homo sapiens, UniProt Q9UQ49)
Construct: MBP (N); made in house; host or cells: E. coli
Sequence (Q9UQ49 whole entry): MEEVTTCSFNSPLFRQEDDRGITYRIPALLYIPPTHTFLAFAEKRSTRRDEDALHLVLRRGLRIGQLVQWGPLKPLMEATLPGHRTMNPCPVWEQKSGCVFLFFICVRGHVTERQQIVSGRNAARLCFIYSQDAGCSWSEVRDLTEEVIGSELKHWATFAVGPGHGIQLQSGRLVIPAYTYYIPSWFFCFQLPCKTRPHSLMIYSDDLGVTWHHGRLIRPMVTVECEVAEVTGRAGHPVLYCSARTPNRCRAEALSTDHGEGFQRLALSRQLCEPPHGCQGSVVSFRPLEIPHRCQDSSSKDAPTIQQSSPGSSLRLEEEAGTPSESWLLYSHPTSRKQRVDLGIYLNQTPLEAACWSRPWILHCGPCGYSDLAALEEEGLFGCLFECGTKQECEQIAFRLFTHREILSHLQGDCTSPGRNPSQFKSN
test.description: Inhibition assay, 4MU-NANA cleavage, NEU3
Assay type: biochemical
condition.info: 4MU-NANA as the substrate; pH 4.5; read-out: IC50 NEU3
property: IC50

Entry under review: CCCCC(=O)NC[C@@H](O)[C@@H](O)[C@@H]1OC(C(=O)O)=C[C@H](O)[C@H]1NC(=O)CC . Reported IC50?
> 500 µM

And then CCC(=O)N[C@H]1C=C(C(=O)O)O[C@@H]([C@H](O)[C@H](O)CO)[C@@H]1NC(C)=O [25a] , what is it?
> 500 µM

Record: CCCC(=O)N[C@H]1[C@H]([C@H](O)[C@H](O)CO)OC(C(=O)O)=C[C@@H]1O
15 µM

Cool, now CC(=O)N[C@H]1[C@H]([C@H](O)[C@H](O)CO)OC(C(=O)O)=C[C@@H]1NC(=O)C1CC1 [25c]
> 500 µM

Cited source for all entries: patent US20220110919A1
